Could you please report measured pIC50 for the items listed next?
Test system: HCT-116
ASSAY METHOD TEXT: Cytotoxicity against human HCT116 cells after 72 hrs by MTT assay
Type: functional, cell-based
TEST CONDITIONS: HCT-116, 72 h
Recall that pIC50 is obtained by taking minus log10 of the concentration measured in molar.

Output pIC50 of COc1ncc(-c2ccc3nc(NC(=O)NCCN(C)C)nn3c2)cc1NS(=O)(=O)c1ccc(F)cc1
6.66

Output pIC50 of Cn1c(=O)n(-c2ccc(C(C)(C)C#N)cc2)c2c3cc(-c4cnc5ccccc5c4)ccc3ncc21
6.54

Output pIC50 of CCCNC(=O)Nc1nc2ccc(-c3cnc(OC)c(NS(=O)(=O)c4ccc(F)cc4)c3)cn2n1
6.82

Output pIC50 of COc1ncc(-c2ccc3nc(NC(=O)NC4CC4)nn3c2)cc1NS(=O)(=O)c1ccc(F)cc1
7.05

Output pIC50 of CCN(CC)CCNC(=O)Nc1nc2ccc(-c3cnc(OC)c(NS(=O)(=O)c4ccc(C)cc4)c3)cn2n1
6.77

Output pIC50 of COc1ncc(-c2ccc3nc(NC(=O)NCC(=O)N4CCCCC4)nn3c2)cc1NS(=O)(=O)c1ccc(F)cc1
6.89

Output pIC50 of CCN(CC)CCNC(=O)Nc1nc2ccc(-c3cnc(OC)c(NS(=O)(=O)c4ccc(F)cc4F)c3)cn2n1
6.85

Output pIC50 of COc1ncc(-c2ccc3nc(NC(=O)N4CCCC4)nn3c2)cc1NS(=O)(=O)c1ccc(F)cc1
5.89

* * *

ASSAY METHOD TEXT: Acute toxicity in po dosed mouse
Type: organism-based
TEST CONDITIONS: in vivo
Could you please report measured LD50 for the items listed next?
# output: number + unit

Output LD50 of CCN(CC)CCNC(=O)Nc1nc2ccc(-c3cnc(OC)c(NS(=O)(=O)c4ccc(F)cc4)c3)cn2n1
513 mg/kg

Output LD50 of COc1ncc(-c2ccc3nc(NC(C)=O)nn3c2)cc1NS(=O)(=O)c1ccc(F)cc1
28 mg/kg

Output LD50 of COc1ncc(-c2ccc3nc(NC(=O)NC4CC4)nn3c2)cc1NS(=O)(=O)c1ccc(F)cc1
118 mg/kg

Output LD50 of CCCNC(=O)Nc1nc2ccc(-c3cnc(OC)c(NS(=O)(=O)c4ccc(F)cc4)c3)cn2n1
156 mg/kg

* * *

Tested on: HCT-116
ASSAY METHOD TEXT: Cytotoxicity against human HCT116 cells after 72 hrs by MTT assay
Format: functional, cell-based
TEST CONDITIONS: HCT-116, 72 h
Could you please report measured IC50 for the items listed next?
Express the result in nM but write the number alone.

Determine reported IC50 for COc1ncc(-c2ccc3nc(NC(=O)NCC(=O)N4CCOCC4)nn3c2)cc1NS(=O)(=O)c1ccc(F)cc1 ; test system: HCT-116.
490

Determine reported IC50 for COc1ncc(-c2ccc3nc(NC(=O)NCCN4CCN(C)CC4)nn3c2)cc1NS(=O)(=O)c1ccc(F)cc1 ; test system: HCT-116.
260

Determine reported IC50 for CCN(CC)CCNC(=O)Nc1nc2ccc(-c3cnc(OC)c(NS(=O)(=O)c4ccc(Cl)cc4)c3)cn2n1 ; test system: HCT-116.
120

Determine reported IC50 for COc1ncc(-c2ccc3nc(NC(=O)N(C)C)nn3c2)cc1NS(=O)(=O)c1ccc(F)cc1 ; test system: HCT-116.
760

Determine reported IC50 for COc1ncc(-c2ccc3nc(NC(=O)NCCN4CCCC4)nn3c2)cc1NS(=O)(=O)c1ccc(F)cc1 ; test system: HCT-116.
230

Determine reported IC50 for CNC(=O)Nc1nc2ccc(-c3cnc(OC)c(NS(=O)(=O)c4ccc(F)cc4)c3)cn2n1 ; test system: HCT-116.
180

Determine reported IC50 for COc1ncc(-c2ccc3nc(NC(=O)NCCN4CCOCC4)nn3c2)cc1NS(=O)(=O)c1ccc(F)cc1 ; test system: HCT-116.
130

Determine reported IC50 for COc1ncc(-c2ccc3nc(NC(=O)NCCN4CCCCC4)nn3c2)cc1NS(=O)(=O)c1ccc(F)cc1 ; test system: HCT-116.
150

Determine reported IC50 for COc1ncc(-c2ccc3nc(NC(=O)NCC(=O)N4CCCC4)nn3c2)cc1NS(=O)(=O)c1ccc(F)cc1 ; test system: HCT-116.
140

Determine reported IC50 for CCN(CC)CCNC(=O)Nc1nc2ccc(-c3cnc(OC)c(NS(=O)(=O)c4ccc(F)cc4)c3)cn2n1 ; test system: HCT-116.
180
